Give growth AUC normalised to DMSO control for every item shown.
System: S. enterica typhimurium WT;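 also: active when median AUC fell below 0.1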
experiment_description: growth AUC normalised to DMSO control (median) (fraction of control); higher = less growth inhibition, active = hit call of the paper
measurement_context: 20 µM
Structures can show the parent of a compound that is named as a salt.
In your answer, state the number alone without any accompanying words.

Lab book: growth AUC normalised to DMSO control of CCC1(CC)C(=O)C=CNC1=O noted as 1.02

Reported growth AUC normalised to DMSO control of COc1cc([C@@H]2c3cc4c(cc3[C@H](O)[C@H]3COC(=O)[C@H]23)OCO4)cc(OC)c1OC : 0.998

The compound listed as CCN(CC)C(C)C(=O)c1ccccc1 (configuration not stated) [Amfepramone hydrochloride] has a reported growth AUC normalised to DMSO control of 1.01

# growth AUC normalised to DMSO control of CN1C[C@H](CNC(=O)OCc2ccccc2)C[C@@H]2c3cccc4c3c(cn4C)C[C@H]21 = 0.992

compound CN(C)[C@@H]1C(=O)C(C(N)=O)=C(O)[C@@]2(O)C(=O)C3=C(O)c4c(O)cccc4[C@@](C)(O)[C@H]3[C@H](O)[C@@H]12 [Oxytetracycline dihydrate] , growth AUC normalised to DMSO control observed: 0.0149

Query CCCN1C[C@H](CSC)C[C@@H]2c3cccc4[nH]cc(c34)C[C@H]21 [Pergolide mesylate] yields growth AUC normalised to DMSO control of 0.995

// recorded growth AUC normalised to DMSO control for C[N+]12CCC(CC1)C(OC(=O)C(O)(c1ccccc1)c1ccccc1)C2 (configuration not stated) [Clidinium bromide] : 1.02

----------
Can you tell me growth AUC normalised to DMSO control for the items I'm about to list?
System: Shigella flexneri
experiment_description: growth AUC normalised to DMSO control (fraction of control); higher = less growth inhibition, active = hit call of the paper
measurement_context: 20 µM
Counter-ions that a name gives are not always drawn.
Give your answer as a number; write no unit.

The recorded growth AUC normalised to DMSO control for entry CC(CCc1ccccc1)NC(C)C(O)c1ccc(O)cc1 (centres undefined) [Nylidrin] equals 0.994

According to the records, this molecule CCN(C)C(=O)Oc1cccc([C@H](C)N(C)C)c1 [Rivastigmine] displays growth AUC normalised to DMSO control of 1.02

The measured growth AUC normalised to DMSO control associated with CCOC(=O)c1cncn1[C@H](C)c1ccccc1 [Etomidate] reads 1

# growth AUC normalised to DMSO control (molecule: CN1C(=O)CCS(=O)(=O)C1c1ccc(Cl)cc1 (centres undefined) [Chlormezanone] ) is 0.992

// recorded growth AUC normalised to DMSO control for Oc1ccc2c3c1O[C@H]1[C@@H](O)CC[C@@]4(O)[C@@H](C2)N(CC2CCC2)CC[C@]314 [Nalbuphine hydrochloride] : 0.974

growth AUC normalised to DMSO control recorded for this molecule, C[C@]12CCC(=O)C(O)=C1CC[C@@H]1[C@@H]2CC[C@]2(C)C(=O)CC[C@@H]12 [Formestane] , is 1

Lab note: O=C1CC[C@@]2(O)[C@H]3Cc4ccc(O)c5c4[C@@]2(CCN3CC2CC2)[C@H]1O5 [Naltrexone hydrochloride dihydrate] gave growth AUC normalised to DMSO control of 0.992

Note to self: growth AUC normalised to DMSO control recorded for C#C[C@]1(O)CC[C@H]2[C@@H]3CCC4=CC(=O)CC[C@]4(C)[C@H]3CC[C@@]21C [Ethisterone] was 1.02

Form field growth AUC normalised to DMSO control, entry CN1C[C@H](CNC(=O)OCc2ccccc2)C[C@@H]2c3cccc4c3c(cn4C)C[C@H]21 [Metergoline] : 0.973

The value of growth AUC normalised to DMSO control measured for the molecule O=C(CCCN1CCC(n2c(=O)[nH]c3ccccc32)CC1)c1ccc(F)cc1 [Benperidol] turned out to be 0.998

Kindly note the recorded growth AUC normalised to DMSO control for NCC(O)c1ccc(O)cc1 (centres undefined) [Octopamine hydrochloride] , which is 0.999

According to the records, this molecule CC[N+]1(C)CCCC(OC(=O)C(O)(c2ccccc2)c2ccccc2)C1 (centres undefined) [Pipenzolate bromide] displays growth AUC normalised to DMSO control of 0.977

Recorded growth AUC normalised to DMSO control (molecule CC(C)N(CCC(C(N)=O)(c1ccccc1)c1ccccn1)C(C)C (centres undefined) [Disopyramide] ): 0.988

molecule CN1CCN(C(=O)OC2c3nccnc3C(=O)N2c2ccc(Cl)cn2)CC1 (centres undefined) [Zopiclone] , growth AUC normalised to DMSO control observed: 1
